- target-of-assay: Substance-K receptor (Homo sapiens, UniProt P21452)
- Sequence (P21452 whole entry): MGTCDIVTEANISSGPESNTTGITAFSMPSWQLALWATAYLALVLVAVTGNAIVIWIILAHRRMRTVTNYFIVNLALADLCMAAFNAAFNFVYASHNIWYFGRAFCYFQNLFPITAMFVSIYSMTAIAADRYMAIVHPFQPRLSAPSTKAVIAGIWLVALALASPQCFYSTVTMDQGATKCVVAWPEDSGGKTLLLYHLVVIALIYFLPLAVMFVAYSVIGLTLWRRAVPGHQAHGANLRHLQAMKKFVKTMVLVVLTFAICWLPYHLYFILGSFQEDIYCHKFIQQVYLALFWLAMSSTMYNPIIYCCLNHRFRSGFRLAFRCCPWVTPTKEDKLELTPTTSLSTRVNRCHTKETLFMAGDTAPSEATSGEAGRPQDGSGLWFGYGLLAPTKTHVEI
From various publications: Ki for Substance-K receptor (Homo sapiens, UniProt P21452).
Report the value in nM with no unit label.

Assign Ki to the following record: O=C1C[C@H](NCc2nn[nH]n2)C(=O)NC[C@@H](Cc2ccccc2)NC(=O)[C@H](Cc2ccccc2)NC(=O)[C@H](Cc2c[nH]c3ccccc23)N1
1.58

Assign Ki to the following record: Cc1ccc2cc(C(=O)NC3(C(=O)N[C@@H](CCCN4CCN(C5CCOCC5)CC4)Cc4ccccc4)CCCC3)sc2c1
0.251

Assign Ki to the following record: O=C1C[C@@H](NC(=O)CN2CCOCC2)C(=O)NC[C@@H](Cc2ccccc2)NC(=O)[C@H](Cc2ccccc2)NC(=O)[C@H](Cc2c[nH]c3ccccc23)N1
0.316

Assign Ki to the following record: CN(Cc1ccccc1)C(=O)[C@H](Cc1ccc2ccccc2c1)NC(=O)[C@H]1C[C@H](O)CN1C(=O)c1cn(CCCCc2nnn[nH]2)c2ccccc12
2400

Assign Ki to the following record: Cl.N[C@@H](CCC(=O)N1CCN(CC2CCOCC2)CC1)Cc1ccccc1
0.0794

Assign Ki to the following record: COc1cc2ccccc2cc1C(=O)NC1(C(=O)N[C@H](CCCN2CCN(CC3CCOCC3)CC2)Cc2ccccc2)CCCC1
8.32

Assign Ki to the following record: Cc1ccc2cc(C(=O)NC3(C(=O)N[C@@H](CCCN4CCN(C(=O)N5CCOCC5)CC4)Cc4ccccc4)CCCC3)sc2c1
0.398

Assign Ki to the following record: NCCOCCOCCNC(=O)[C@H](Cc1ccccc1)NC(=O)C1(NC(=O)c2cc3ccccc3s2)Cc2ccccc2C1
20

Assign Ki to the following record: CO/N=C(\COCc1cc(C(F)(F)F)cc(C(F)(F)F)c1)C(CCN1CCN(CC(=O)N2CCC2)CC1)c1ccc(Cl)c(Cl)c1 (stereo not given)
33

Assign Ki to the following record: CO/N=C(\COCc1cc(C(F)(F)F)cc(C(F)(F)F)c1)C(CCN1CCC(NC(=O)C2CCCCC2)CC1)c1ccc(Cl)c(Cl)c1 (stereo not given)
146

Assign Ki to the following record: CC(C)(Oc1cccc(-c2ccccc2)c1)C(=O)N[C@H](Cc1ccccc1)C(=O)NCCCN1CCOCC1
10000

Assign Ki to the following record: O=C(Nc1ccc(OCc2cccc(Cl)c2)cc1)N[C@@H](Cc1ccccc1)C(=O)NCCCN1CCOCC1
320

Assign Ki to the following record: O=C(NC1(C(=O)N[C@@H](CCCN2CCN(CC3CCOCC3)CC2)Cc2ccccc2)CCCC1)c1ccc2ccccc2c1
0.316

Assign Ki to the following record: CC/N=C(\N1CCOCC1)N1CCN(CCC[C@@H](Cc2ccccc2)NC(=O)C2(NC(=O)c3cc4ccc(C)cc4s3)CCCC2)CC1
0.794

Assign Ki to the following record: O=C(Nc1ccc(OCc2ccccc2)cc1)N[C@H](Cc1ccccc1)C(=O)NCCCN1CCOCC1 (stereo in doubt; 32b (D))
630

Assign Ki to the following record: O=C(Nc1ccc(OCc2cccc(Cl)c2)cc1)N[C@H](Cc1ccccc1)C(=O)NCCCN1CCOCC1
630

Assign Ki to the following record: CC[C@@H](NC(=O)c1c(OCC(=O)O)c(-c2ccccc2)nc2ccccc12)c1ccccc1
214

Assign Ki to the following record: O=C(NC1(C(=O)N[C@H](Cc2ccccc2)C(=O)NCCCN2CCOCC2)CCc2ccccc21)c1cc2ccccc2s1 (stereo in doubt; 47b)
2

Assign Ki to the following record: CC(C)[C@H](NC(=O)c1c(CN(C)C)c(-c2ccccc2)nc2ccccc12)c1ccccc1
51.6

Assign Ki to the following record: N=C(N)NCC(=O)N[C@H]1CC(=O)N[C@@H](Cc2c[nH]c3ccccc23)C(=O)N[C@@H](Cc2ccccc2)C(=O)N[C@H](Cc2ccccc2)CNC1=O
3.98

Assign Ki to the following record: CC(C)(Oc1ccc(-c2ccccc2)cc1)C(=O)N[C@H](Cc1ccccc1)C(=O)NCCCN1CCOCC1
7900

Assign Ki to the following record: O=C(Nc1ccc(OCc2ccc(C(F)(F)F)cc2)cc1)N[C@H](Cc1ccccc1)C(=O)NCCCN1CCOCC1
5000

Assign Ki to the following record: CO/N=C(\COCc1cc(C(F)(F)F)cc(C(F)(F)F)c1)C(CCN1CCN(CC(=O)N2CCCCC2)CC1)c1ccc(Cl)c(Cl)c1 (stereo not given)
208

Assign Ki to the following record: CC(=O)NC1(c2ccccc2)CCN(C[C@@H]2C[C@@]2(C(=O)N(C)Cc2ccccc2)c2ccc(Cl)c(Cl)c2)CC1
88

Assign Ki to the following record: CCOC(=O)C1=C(C)OC2OC(CO)C(OCc3ccccc3)C(OCc3ccccc3)C2[S+]1[O-] (stereo not given)
4000

Assign Ki to the following record: Cc1ccc2cc(C(=O)NC3(C(=O)N[C@@H](CCCN4CCN(S(N)(=O)=O)CC4)Cc4ccccc4)CCCC3)sc2c1
0.631
